EXPERIMENTAL_PROTOCOL: in vivo
SETUP_CONDITIONS: Sprague-Dawley, rat, in vivo, po, 2 g/kg
Method: To specifically deconjugate glucuronides, 80 μL of plasma sample was incubated with 50 μL of β-glucuronidase solution containing 200 units/mL β-glucuronidase from Escherichia coli (Sigma-Aldrich) for 2 h at 37 °C. […] For quantification of apigenin, wogonin, wogonoside, hesperetin, naringenin, liquiritigenin, genistein, and luteolin in β-glucuronidase-naive (untreated) plasma, 200 µL plasma samples were pretreated by liquid-liquid extraction using ethyl acetate. […]
# maps each entry to its log10 of AUC(0-t)
QUANTITY_KIND: log10 of AUC(0-t) (log10 of the value in ng·h/mL)

compound="O=c1cc(-c2ccc(O)cc2)oc2cc(O)cc(O)c12 [Apigenin, apigenin]" assay_value=-0.07
compound="O=C(O)[C@H]1O[C@@H](Oc2cc3oc(-c4ccccc4)cc(=O)c3c(O)c2O)[C@H](O)[C@@H](O)[C@@H]1O [baicalin, baicalein 7-O-glucuronide]" assay_value=4.00
compound="O=c1c(-c2ccc(O)cc2)coc2cc(O)cc(O)c12 [Genistein, genistein]" assay_value=0.98
compound="O=c1cc(-c2ccc(O)c(O)c2)oc2cc(O)cc(O)c12 [Luteolin, luteolin]" assay_value=1.33
compound="COc1c(O)cc(O)c2c(=O)cc(-c3ccccc3)oc12 [Wogonin, wogonin]" assay_value=1.85
compound="O=C1C[C@@H](c2ccc(O)cc2)Oc2cc(O)cc(O)c21 [Naringenin, naringenin]" assay_value=0.98

###

EXPERIMENTAL_PROTOCOL: Plasma pharmacokinetics of KRT-derived compounds in rats given oral KRT (LC-MS/MS, with or without β-glucuronidase treatment of plasma)
SETUP_CONDITIONS: Sprague-Dawley, rat, in vivo, po, 2 g/kg
# maps each entry to its Cmax
QUANTITY_KIND: Cmax (ng/mL)

compound="O=c1c(-c2ccc(O)cc2)coc2cc(O)cc(O)c12 [Genistein, genistein]" quantity_kind=Cmax assay_value=0.998
compound="O=C1C[C@@H](c2ccc(O)cc2)Oc2cc(O)cc(O)c21 [Naringenin, naringenin]" quantity_kind=Cmax assay_value=1.34
compound="O=c1cc(-c2ccc(O)cc2)oc2cc(O)cc(O)c12 [Apigenin, apigenin]" quantity_kind=Cmax assay_value=0.14
compound="CC1(C)[C@@H](O)CC[C@]2(C)[C@H]3C(=O)C=C4[C@@H]5C[C@@](C)(C(=O)O)CC[C@]5(C)CC[C@@]4(C)[C@]3(C)CC[C@@H]12 [glycyrrhetinic acid]" quantity_kind=Cmax assay_value=121
compound="COc1c(O)cc(O)c2c(=O)cc(-c3ccccc3)oc12 [Wogonin, wogonin]" quantity_kind=Cmax assay_value=16.3
compound="O=c1cc(-c2ccc(O)c(O)c2)oc2cc(O)cc(O)c12 [Luteolin, luteolin]" quantity_kind=Cmax assay_value=4.7
compound="O=C(O)[C@H]1O[C@@H](Oc2cc3oc(-c4ccccc4)cc(=O)c3c(O)c2O)[C@H](O)[C@@H](O)[C@@H]1O [baicalin, baicalein 7-O-glucuronide]" quantity_kind=Cmax assay_value=1020

###

EXPERIMENTAL_PROTOCOL: Plasma pharmacokinetics of KRT-derived compounds in rats given oral KRT (LC-MS/MS, with or without β-glucuronidase treatment of plasma)
SETUP_CONDITIONS: Sprague-Dawley, rat, plasma, oral, 2 g/kg
QUANTITY_KIND: Cmax (ng/mL)

compound="O=c1cc(-c2ccccc2)oc2cc(O)c(O)c(O)c12 [Baicalein, baicalein]" assay_value=1320

###

EXPERIMENTAL_PROTOCOL: Plasma pharmacokinetics of KRT-derived compounds in rats given oral KRT (LC-MS/MS, with or without β-glucuronidase treatment of plasma)
SETUP_CONDITIONS: Sprague-Dawley, rat, in vivo, po, 2 g/kg
QUANTITY_KIND: Tmax (h)

compound=COc1c(O)cc(O)c2c(=O)cc(-c3ccccc3)oc12 assay_value=4
compound=O=c1cc(-c2ccc(O)c(O)c2)oc2cc(O)cc(O)c12 assay_value=6
compound="O=C(O)[C@H]1O[C@@H](Oc2cc3oc(-c4ccccc4)cc(=O)c3c(O)c2O)[C@H](O)[C@@H](O)[C@@H]1O [baicalin, baicalein 7-O-glucuronide]" assay_value=4
compound=O=c1cc(-c2ccc(O)cc2)oc2cc(O)cc(O)c12 assay_value=4
compound=O=C1C[C@@H](c2ccc(O)cc2)Oc2cc(O)cc(O)c21 assay_value=4
compound=O=c1c(-c2ccc(O)cc2)coc2cc(O)cc(O)c12 assay_value=24
compound=CC1(C)[C@@H](O)CC[C@]2(C)[C@H]3C(=O)C=C4[C@@H]5C[C@@](C)(C(=O)O)CC[C@]5(C)CC[C@@]4(C)[C@]3(C)CC[C@@H]12 assay_value=6

###

EXPERIMENTAL_PROTOCOL: Plasma pharmacokinetics of KRT-derived compounds in rats given oral KRT (LC-MS/MS, with or without β-glucuronidase treatment of plasma)
SETUP_CONDITIONS: Sprague-Dawley, rat, plasma, po, 2 g/kg
QUANTITY_KIND: Tmax (h)

compound=COc1ccc([C@@H]2CC(=O)c3c(O)cc(O)cc3O2)cc1O unit_of_measure=h assay_value=4
compound=CC1(C)[C@@H](O[C@H]2O[C@H](C(=O)O)[C@@H](O)[C@H](O)[C@H]2O[C@@H]2O[C@H](C(=O)O)[C@@H](O)[C@H](O)[C@H]2O)CC[C@]2(C)[C@H]3C(=O)C=C4[C@@H]5C[C@@](C)(C(=O)O)CC[C@]5(C)CC[C@@]4(C)[C@]3(C)CC[C@@H]12 unit_of_measure=h assay_value=1
compound="COc1c(O[C@@H]2O[C@H](C(=O)O)[C@@H](O)[C@H](O)[C@H]2O)cc(O)c2c(=O)cc(-c3ccccc3)oc12 [wogonoside, wogonin 7-O-glucuronide]" unit_of_measure=h assay_value=6
compound=O=C1C[C@@H](c2ccc(O)cc2)Oc2cc(O)ccc21 unit_of_measure=h assay_value=4
